assay-target: Eng195 M2-S31 CD peptide (aa 18-60) (Influenza A virus, UniProt P06821, A27V/L43T/N31S)
Format: biochemical, Influenza A/England/195/2009 (H1N1)
parameter-measured: effect on M2-S31 CD peptide channel activity

OC(CN1CCCC1)C12CC3CC(CC(C3)C1)C2 (centres unmarked) [G] :: no activity
CCN1CCC(NC2C3CC4CC(C3)CC2C4)CC1 (centres unmarked) [E] :: no activity

###

assay-target: Eng195 M2-S31 CD peptide (aa 18-60) (Influenza A virus, UniProt P06821, A27V/L43T/N31S)
Format: biochemical, Influenza A/England/195/2009 (H1N1)
parameter-measured: effect on M2-S31 CD peptide channel activity

O=C(Nc1nnc[nH]1)c1cc2ccccc2o1 [K] :: activity versus M2-S31
c1cc2nc(C34CC5CC(CC(C5)C3)C4)[nH]c2cn1 [D] :: inhibited
CN1CCN(C(=O)c2ccc3ccccc3c2)CC1 [B] :: activity versus M2-S31
Cc1ncc(C23CC4CC(CC(C4)C2)C3)[nH]1 [H] :: inhibited
